# TEST DESCRIPTION: label from the status in PepcDB records
ENDPOINT: protein production

Given the entry "MKRSTRFQQRSLFAIGGLGLLIGVAFVLVQFRATLIFTVFLYYASRPIYRKLESVSTPSYFSEYSLPYRRQILAVTTISVFLLPFLLLFTYTLALVVPAVQQFIGQNDLASGYLSAIQSADSGGLPEPIAGLQISDLLDMSPEEIVTILNAPSVRTWIEQTLGTLISSIGVFADVGIQAFLLLSGTYYLLTDGPRLSRWLFDHFDESGVVESYAIAVDDELSSILFGNILNALVTGIIGIVVFSAYNSISPAAVQVPFAPLVGALTGAGSLIPVVGMKIVYFPVGAILTVGAVASGQATAIGYVLLFLILAFVVVDTIPDFLIRPYVSGNRTHVGLLMFAYILGPIVFGAYGIFLGPILLVLVAQFFRTVAPYVATGEPPDQSKLYEY" , report its measured protein production.
failed

Same lookup for "MAKIKKYTTKTGKIRYEFQVYAGVDSLTGRQKTTRRRGFKTRKEASIVLSRLELEIEKRGLQEDERRFFRDVCAEWMEQYRLTVRESTLEKTQRIINIHVLPAFGDMVINNITPNVCQKVVNKWFLEAKSYKKWLNYASMIFDYALRAEYVGRNPCTLVTMPRVQEQAGEKLENFWTRDELNTFFDYVTPERDVEQFTMFRVLAYSGIRKGELLALTWKDINFEDNTLRVNKTLTQGLGGKLIVQPPKSRAGRRTIDLDDSTMRYLRQWKGVQRETFLGMGFNTNNVDQLVFASNRNHFRSMNTPTKWLNKAIKATGLKHISIHGFRHTHASLLYQSGVGLKETQQRLGHSRADSSVTLDVYTHTTEQQNVAALQRFENYVEAK" , please.
failed

----------
# TEST DESCRIPTION: label from the status in PepcDB records
ENDPOINT: protein production

# protein production lookup, item "MSLSGALKENSGKPSEVEYTHFKDLQALEMERGRLYETIVVTWDDSMVGNAAPIGVLCTGDDTVTLYLYQGTRTVENVLNNGRFTVNVTLDPLIFTDSTLGDLEEDMFSHYRDFLHLRGADAFFTAEVVSVKKLVKRDRFGESELHVVKARAGDVMRAESFRMALNRGIYAVIESLIAYTRAEFSDPLVLRERIAEMNRVARKVGGPREKEAMRRIIQALESKISEGHHHHHH"
not failed

Try this sequence next: "HVETIKNTFLNPKSNKVLVVAHRGNWRSAPENSTAAIDSAIAMKVDIVEIDIQKTKDGQLILMHDNTLDRTTTGKGEIKNWTLADIKKLKLKDKDGKVTNYVVPTLEEALLTAKGKIMVNLDKAYDIFDDVYAILEKTETQNQVIMKGGQPIETVKREFGSYLDKVLYMPVIDLGNKEAEKIITDYLKELRPAAFEIIYSDPKNPLPPKIKQLLFKKSLIWYNTLWGSLAGNHDDNLALTDPEKSYGYLIEQLGARILQTDQPAYLLDYLRKKGWHN"
not failed

Quick one: "MIKNNIKHTWYFGHPQQLVWDYLTKPELLSQWLMESDFQPVAGHTFMFNTKPKVKVGFDGLIYCQVLKVQPDHELEHHHHHH"
not failed

----------
# TEST DESCRIPTION: label from the status in PepcDB records
ENDPOINT: protein production

Item "VVENYETQFVTFVESEMEQDLAHDLNHVFRVVKTAKLLSKIEGAMLEVVLPAAYLHDCFSFPKNHPNKAESSRIAADKALEFLNEIGYPNEYHDAIKHAIIAHSFSAKVQPDTLEAKVVQDADRLDALGAIGIARCIQVSTNLGVGLYDATDPFCGTREPNDRVNTVDHFYTKLFKLPEIMHTASAKVEAEKRMKFMKAYLIQLGMEIEPYS" has what recorded protein production?
failed

Cool, now "MNKMNNNILKKNDLSSQEESTHEIQDVLDQLDFYTYKIALFLDIDGTLADFKIDPLACFISKKILKSIQDIQSKGCLVSVITGRDYNSAQKLLADVSLPIAALHGLDIHINEKTQLNAINQNNQIFIQNFLCRLKEEIKYQPDLSIENKHHSIALHYRKNPDLYDIAKHIMNTVKKDNDEFKVIEGKYVFELIPKNSNKGSAIKTLLSYFDAEHYLSIFIGDDITDEDGFNMVNQLEGISIKVGSGKTVARFRLKNIEHVEEFLNLLSHHFPDSSTQITKKYGEQHV"
failed

Again, but for "IRQARDLLVASMRNPPSLELLAQKTGLNVRKLNLGFRRMYRATAYGFLQEYRLEQAYKLISSGEMSVSQAAYHVGYGAAHFATVFRKRFGVSPSRLR"
failed

Also "MIAMILVHPHIFWLSLGGLLLAAEMLGGNGYLLWSGVAAVITGLTVWLLPLGWEWQGVLFAALTLLAAWLWWRWLARRVREQKPTDSRLNQRGQQLVGRRFMLDAALVNGRGHMRVGDSSWPVCADEDLRAGTHVEVIAVEGITLRIRAV" ?
failed

Another: "MGSSHHHHHHSSGLVPRGSTETSQQLQLRVQGKEKHQTLEVSLSRDSPLKTLMSHYEEAMGLSGRKLSFFFDGTKLSGRELPADLGMESGDLIEVWG"
not failed

***
Item under review: "MIFMRKVVAEVSIIPLGKGASVSKYVKKAIEVFKKYDLKVETNAMGTVLEGDLDEILKAFKEAHSTVLNDVDRVVSSLKIDERKDKENTIERKLKAIGEL" . Reported protein production?
not failed

Now the same for "MNLKAMDAILEDCCDIVCSDYLPSAMIKSMCIVAERINNLNKAVSLFTSNPAKAVGIYDERGSIKENKKADLVLVDIDSEYPKVVNTIVNGKTVYKRELEHHHHHH"
failed

Another: "ISPGAAGGAEDGFFVPPTKGTSPTQIWCNNSQLPVDHILAGSFETAMRLLHDQVGVIQFGPYKQLFLQTYARGRTTYQALPCLPSMYGYPNRNWKDAGLKNGVPAVGLKLNDLIQRLQLCYQLTTVGKFEEAVEKFRSILLSVPLLVVDNKQEIAEAQQLITICREYIVGLSVETERKKLPKETLEQQKRICEMAAYFTHSNLQPVHMILVLRTALNLFFKLKNFKTAATFARRLLELGPKPEVAQQTRKILSACEKNPTDAYQLNYDMHNPFDICAASYRPIYRGKPVEKCPLSGACYSPEFKGQICRVTTVTEIGKDVIGLRISPLQFR"
failed

Here is the next sequence: "MDGTPGHNAINRLQLVATLAEREVMRYTPAGVPIVNCLLSYSGQAMEAQAARQVEFSIEALGAGKMASVLDRIAPGTVLECVGFLARKHRSSKALVFHISGCNVFVKDLEHHHHHH"
failed
